What TGI was measured for each of the following?
Tested on: K-562 leukemia
MEASUREMENT PROTOCOL: NCI tumour cell line growth inhibition, 48 h

Solved entries:
{"columns": ["COMPOUND", "MEASURED RESULT"],
 "data": [
  ["CCOC(=O)/C(=C\\c1ccc(N(C)C)cc1)S(=O)(=O)C(F)(F)C(F)(F)C(F)(F)C(F)(F)F", "> 100 µM"],
  ["O=S(=O)(NCC1CCC(CNc2ccc(Cl)cc2)CC1)c1ccc(-c2ccccc2)cc1 (configuration not stated)", "> 50 µM"],
  ["C=CCOCn1cnc2c(N)ncnc21", "> 100 µM"]
]}

Dear colleague, could you please provide TGI for the compounds listed below?
1. COc1cc2noc(-c3ccccc3)c2cc1OC
2. Cn1c(=O)c(Oc2ccccc2F)cc2cnc(NC3CCOCC3)nc21
3. Cc1ccc(S(=O)(=O)/N=C(\NN)Nc2ccc(Cl)cc2)cc1
4. CC(=O)OCCOCNC(=S)N/N=C(\C)c1cnc2ccccc2n1

Result ::
1. > 100 µM
2. > 25 µM
3. > 100 µM
4. > 100 µM

----------
System: KM12 colon
MEASUREMENT PROTOCOL: NCI tumour cell line growth inhibition, 48 h
RECORDED ENDPOINT: TGI

For orientation, consider the following solved cases.
{"columns": ["COMPOUND", "TGI"],
 "data": [
  ["Cc1cc(CNC(=O)OCc2ccccc2)c(C)c2c1Oc1ccccc1O2", "> 100 µM"],
  ["C=CCOCn1cnc2c(N)ncnc21", "> 100 µM"],
  ["CC(C)[C@@H]1CC[C@@H](C)C[C@H]1OC(=O)/C=C1/C2C=CC(O2)C1C(=O)O[C@@H]1C[C@H](C)CC[C@H]1C(C)C (stereo not given in full)", "> 100 µM"]
]}

Record TGI per entry; entries follow.
1. O=C(Nc1nc2ccccc2n1Cc1ccccc1)NC12CC3CC(CC(C3)C1)C2
2. N#Cc1cnc2cc(OC[C@@H](O)CO)c(NC(=O)CC3CSSC3)cc2c1Nc1ccc(OCc2cccc(F)c2)c(Cl)c1

Result ::
1: > 100 µM; 2: 0.251 µM

----------
Tested on: HS 578T breast
Your answer must be one of the following: 1 for active, -1 for inactive

{"columns": ["COMPOUND", "QUALITATIVE LABEL"],
 "data": [
  ["OCC1OC(n2ccc3c(NO)ncnc32)C(O)C1O (centres undefined)", 1],
  ["CC/C=C\\C[C@H](O)C/C=C1/C(=O)C=C[C@@H]1C/C=C\\CCCC(=O)N(C)C", -1],
  ["O=C(NCCCNc1cc(-c2cn(-c3ccccc3)nc2-c2cccc(O)c2)ccn1)c1ccccc1", -1],
  ["NNc1cccc(/C=C/c2ccccc2)cc1=O", -1]
]}

Query :: Record lookup: outcome of this test for Nc1nnc2cc(Cl)ccc2n1 ?
Result :: -1

Query :: // param item: O=C(c1ccc2ncc(-c3nc(NC4CC4)ncc3F)n2c1)N1CCOCC1 ; yields the recorded call
Result :: -1

Query :: For O=C(Nc1ccc(F)cc1)c1c(NC(=O)C(F)(F)F)sc2c1CCCCC2 , which call appears in the assay record?
Result :: -1

Query :: Which result was noted for this compound in the test: ClC(Cl)c1nc(-c2cccnc2)n2nc(-c3ccccc3)cc2n1
Result :: -1

Query :: Could you kindly confirm the outcome this assay logged for Cn1ncc2c(N)nc(N3CCCCC3)nc21 ?
Result :: -1
